Hi there, I'd appreciate the recorded viability at 0.002 mg/ml for every entry that follows.
Assay: Genotoxicity in Salmonella typhimurium TA1535 harboring pSK1002 assessed as survival at 0.002 mg/ml in presence of Sprague-Dawley rat liver S9 fraction after by SOS/umu assay relative to control
Assay type: toxicity, organism-based
Conditions: salmonella enterica subsp. enterica serovar typhimurium, read-out: Survival
// return numeric value only (unit: %, not printed)

Quick note, viability at 0.002 mg/ml for OC(CCN1CCN(C(c2ccccc2)c2ccccc2)CC1)c1ccc(F)cc1 (centres undefined) landed at 89.6

Record OC(CCN1CCN(c2ccc(F)cc2)CC1)c1ccc(F)c2ccccc12 (centres undefined) . Reported viability at 0.002 mg/ml: 100

So for N#Cc1ccc(C(O)CCN2CC=C(c3ccc(F)cc3)CC2)cc1 (centres undefined) , the logged viability at 0.002 mg/ml turned out to be 97.8

Briefly, viability at 0.002 mg/ml measured for COc1ccccc1N1CCN(CCC(O)c2ccc(F)c3ccccc23)CC1 (centres undefined) : 102

In plain terms, N#Cc1ccc(N2CCC(NCCC(O)c3ccc(F)c4ccccc34)CC2)c(Br)c1 (centres undefined) has a documented viability at 0.002 mg/ml of 65.3

Looking up N#Cc1ccc(N2CCC(NCCC(O)c3ccc(F)c4ccccc34)CC2)c(Cl)c1 (centres undefined) , I see its viability at 0.002 mg/ml listed as 148

Reported viability at 0.002 mg/ml for OC(CCN1CCN(C(c2ccccc2)c2ccccc2)CC1)c1ccc(Br)cc1 (centres undefined) was 85.9

response.value for Oc1ccc(C(O)CCN2CC=C(c3ccc(F)cc3)CC2)cc1 (centres undefined) (field: viability at 0.002 mg/ml) = 112

Memo: O=[N+]([O-])c1ccccc1N1CCN(CCC(O)c2ccc(F)c3ccccc23)CC1 (centres undefined) , reported viability at 0.002 mg/ml: 84.3

Field viability at 0.002 mg/ml (entry COC(=O)c1ccc(C(O)CCN2CC=C(c3ccc(F)cc3)CC2)cc1 (centres undefined) ) reads 103

Consider OC(CCN1CCN(C(c2ccccc2)c2ccccc2)CC1)c1ccc(F)c2ccccc12 (centres undefined) . Its measured viability at 0.002 mg/ml is 114

Form: compound = OC(CCN1CCN(c2ccccc2C(F)(F)F)CC1)c1ccc(F)cc1 (centres undefined) ; viability at 0.002 mg/ml = 90.4

Entry under test: COc1ccccc1N1CCN(CCC(O)c2ccc(F)cc2)CC1 (stereo in doubt; 66) . Its viability at 0.002 mg/ml was 80.7

Value of measured viability at 0.002 mg/ml for the entry OC(CCN1CCN(C(c2ccccc2)c2ccccc2)CC1)c1ccc(F)c(F)c1 (centres undefined) : 92.2

----------
Experiment: Cytotoxicity against human HepG2A16 cells by MTT assay
Assay type: cell-based
So I've got a bunch of compounds here, and I need their log10 of CC50 values.
Parameter value (number): base-10 log of CC50 in µM.

The recorded log10 of CC50 for O=[N+]([O-])c1ccc(N2CCC(NCCC(O)c3ccc(F)c4ccccc34)CC2)c(C(F)(F)F)c1 (single isomer, unassigned; (+)) is 1.58

Query OC(CCN1CCN(c2ccccc2C(F)(F)F)CC1)c1ccc(F)c2ccccc12 (stereo in doubt; 55) yields log10 of CC50 of 1.44

Entry O=[N+]([O-])c1ccc(N2CCC(NCCC(O)c3ccc(F)c4ccccc34)CC2)c(C(F)(F)F)c1 (single isomer, unassigned; (-)) , log10 of CC50 reported as 1.30

Reported log10 of CC50 for N#Cc1ccc(N2CCC(NCCC(O)c3ccc(F)c4ccccc34)CC2)c(C(F)(F)F)c1 (single isomer, unassigned; (+)) was 1.27

Entry COc1ccccc1N1CCN(CCC(O)c2ccc(F)cc2)CC1 (stereo in doubt; 66) — recorded log10 of CC50 = 1.29

Short answer for N#Cc1ccc(N2CCC(NCCC(O)c3ccc(F)c4ccccc34)CC2)c(C(F)(F)F)c1 (stereo in doubt; 72) : log10 of CC50 was 0.79

The compound listed as OC(CCN1CCN(c2ccccc2C(F)(F)F)CC1)c1ccc(F)c2ccccc12 (single isomer, unassigned; (-)) shows log10 of CC50 equal to 1.26

The compound listed as COc1ccccc1N1CCN(CCC(O)c2ccc(F)cc2)CC1 (single isomer, unassigned; (+)) has a reported log10 of CC50 of 1.98

So, OC(CCN1CCN(c2ccccc2C(F)(F)F)CC1)c1ccc(F)c2ccccc12 (single isomer, unassigned; (+)) ? Its log10 of CC50 was 1.03

Record summary for O=[N+]([O-])c1ccc(N2CCC(NCCC(O)c3ccc(F)c4ccccc34)CC2)c(C(F)(F)F)c1 (stereo in doubt; 8) : reported log10 of CC50 = 0.76

// field: log10 of CC50; key: N#Cc1ccc(N2CCC(NCCC(O)c3ccc(F)c4ccccc34)CC2)c(C(F)(F)F)c1 (stereo in doubt; (-)-72) ; value = 1.04

Form: compound = COc1ccccc1N1CCN(CCC(O)c2ccc(F)cc2)CC1 (single isomer, unassigned; (-)) ; log10 of CC50 = 1.16

----------
Experiment: Genotoxicity in Salmonella typhimurium TA1535 harboring pSK1002 assessed as umu gene induction at 0.002 mg/ml in presence of Sprague-Dawley rat liver S9 fraction after by SOS/umu assay relative to control
Type: toxicity, organism-based
Conditions: salmonella enterica subsp. enterica serovar typhimurium, read-out: FC
MEASURE: fold induction at 0.002 mg/ml
Kindly provide the number alone.

Per the records, this compound ( COc1ccccc1C1=CCN(CCC(O)c2ccc(F)c3ccccc23)CC1 (stereo not given) ) has fold induction at 0.002 mg/ml equal to 0.9

So for OC(CCN1CCN(c2ccccc2C(F)(F)F)CC1)c1ccc(F)c2ccccc12 (stereo in doubt; 55) , the logged fold induction at 0.002 mg/ml turned out to be 0.5

The compound listed as N#Cc1ccc(N2CCC(NCCC(O)c3ccc(F)c4ccccc34)CC2)c(Cl)c1 (stereo not given) shows fold induction at 0.002 mg/ml equal to 0.8

Record COc1ccccc1N1CCN(CCC(O)c2ccc(F)c3ccccc23)CC1 (stereo not given) . Reported fold induction at 0.002 mg/ml: 1

Note to self: fold induction at 0.002 mg/ml recorded for COc1ccccc1C1=CCN(CCC(O)c2ccc(F)cc2)CC1 (stereo not given) was 1.1

According to the records, this compound OC(CCN1CCN(C(c2ccccc2)c2ccccc2)CC1)c1ccc(Cl)cc1 (stereo not given) displays fold induction at 0.002 mg/ml of 0.7

Reported fold induction at 0.002 mg/ml for OC(CCN1CCN(C(c2ccccc2)c2ccccc2)CC1)c1ccc(Br)cc1 (stereo not given) was 0.8

The compound listed as OC(CCN1CCN(C(c2ccccc2)c2ccccc2)CC1)c1ccc(F)c(F)c1 (stereo not given) has a reported fold induction at 0.002 mg/ml of 0.8

The compound listed as OC(CCN1CCN(c2ccccc2C(F)(F)F)CC1)c1ccc(F)cc1 (stereo not given) shows fold induction at 0.002 mg/ml equal to 1

Entry COc1ccccc1N1CCN(CCC(O)c2ccc(F)cc2)CC1 (stereo in doubt; 66) ; fold induction at 0.002 mg/ml = 1.2

----------
Test: Genotoxicity in Salmonella typhimurium TA1535 harboring pSK1002 assessed as survival at 0.004 mg/ml in presence of Sprague-Dawley rat liver S9 fraction after by SOS/umu assay relative to control
Type: toxicity, organism-based
Details: salmonella enterica subsp. enterica serovar typhimurium, read-out: Survival
MEASURE: viability at 0.004 mg/ml (%)
Numbers only; they are read as %.

Measured viability at 0.004 mg/ml, OC(CCN1CCN(C(c2ccccc2)c2ccccc2)CC1)c1ccc(F)c(Cl)c1 (stereo not given) : 87.7

GET /value?item= COc1ccccc1C1=CCN(CCC(O)c2ccc(F)c3ccccc23)CC1 (stereo not given) &field=viability at 0.004 mg/ml returns 91.1

The reported viability at 0.004 mg/ml of the compound COc1ccccc1N1CCN(CCC(O)c2ccc(F)c3ccccc23)CC1 (stereo not given) was 102

Looking up COC(=O)c1ccc(C(O)CCN2CC=C(c3ccc(F)cc3)CC2)cc1 (stereo not given) , I found its viability at 0.004 mg/ml recorded as 101

Entry OC(CCN1CC=C(c2ccc(F)cc2)CC1)c1ccc2c(c1)OCO2 (stereo not given) — recorded viability at 0.004 mg/ml = 105

----------
Test: Genotoxicity in Salmonella typhimurium TA1535 harboring pSK1002 assessed as survival at 0.016 mg/ml in presence of Sprague-Dawley rat liver S9 fraction after by SOS/umu assay relative to control
Type: toxicity, organism-based
Conditions: salmonella enterica subsp. enterica serovar typhimurium, read-out: Survival
viability at 0.016 mg/ml less than 80% is T; viability at 0.016 mg/ml greater than or equal to 80% is F.

Take the molecule COc1ccccc1N1CCN(CCC(O)c2ccc(F)c3ccccc23)CC1 (stereo unspecified) and say whether its viability at 0.016 mg/ml is less than 80%.
F

Below 80% on viability at 0.016 mg/ml? Entry O=[N+]([O-])c1ccccc1N1CCN(CCC(O)c2ccc(F)c3ccccc23)CC1 (stereo unspecified)
T

Quick check: viability at 0.016 mg/ml of COc1ccccc1C1=CCN(CCC(O)c2ccc(F)c3ccccc23)CC1 (stereo unspecified) under 80%?
F

Is 80% strictly greater than the molecule's reported viability at 0.016 mg/ml? molecule: OC(CCN1CCN(c2ccccc2C(F)(F)F)CC1)c1ccc(F)c2ccccc12 (stereo in doubt; 55)
T

State whether 80% exceeds viability at 0.016 mg/ml recorded for N#Cc1ccc(N2CCC(NCCC(O)c3ccc(F)c4ccccc34)CC2)c(C(F)(F)F)c1 (stereo in doubt; 72) .
T

Is viability at 0.016 mg/ml strictly under 80% for the entry N#Cc1ccc(C(O)CCN2CC=C(c3ccc(F)cc3)CC2)cc1 (stereo unspecified) ?
F

Strictly below 80% in viability at 0.016 mg/ml? OC(CCN1CCN(C(c2ccccc2)c2ccccc2)CC1)c1ccc(F)c2ccccc12 (stereo unspecified)
F

Please determine if OC(CCN1CCN(c2ccccc2C(F)(F)F)CC1)c1ccc(F)cc1 (stereo unspecified) is below 80% in terms of viability at 0.016 mg/ml.
F

Check if viability at 0.016 mg/ml falls below 80% for OC(CCN1CCN(c2ccc(F)cc2)CC1)c1ccc(F)c2ccccc12 (stereo unspecified) .
T

Check if viability at 0.016 mg/ml falls below 80% for COc1ccccc1N1CCN(CCC(O)c2ccc(F)cc2)CC1 (stereo in doubt; 66) .
F

Recorded values, source ChEMBL document CHEMBL4152256.
